Test system: DU-145
Test summary: Cytotoxicity against human DU145 cells by SRB assay
Format: functional
Quantity measured: GI50 (µM)
Answer with a number only, understood to be in µM.

COC(C)(C)[C@@H](O)[C@H]1C[C@H](C)[C@@]2(CC[C@]3(C)[C@@H]2CC[C@@H]2[C@@]4(C)CC[C@@H](OC(C)=O)C(C)(C)[C@@H]4C[C@@H](O[C@@H]4O[C@H](COC(C)=O)[C@@H](O)[C@H](O)[C@H]4O)[C@]23C)O1 yielded GI50 of 4.47

Data point: C=C1[C@@H](O)C[C@@]23CC[C@@H]4[C@@]5(C)CC[C@@H](OC(C)=O)C(C)(C)[C@@H]5C[C@@H](O[C@@H]5O[C@H](COC(C)=O)[C@@H](O)[C@H](O)[C@H]5O)[C@@]4(C)C2=CC[C@H]3[C@H]1C ; GI50 = 10.7

The reported value for CC(=O)OC[C@H]1O[C@@H](O[C@@H]2C[C@H]3C(C)(C)[C@H](OC(C)=O)CC[C@]3(C)[C@H]3CC[C@@H]4[C@]5(CC[C@@]4(C)[C@@]32C)O[C@@H]([C@H](O)C(C)(C)O)C[C@@H]5C)[C@H](O)[C@@H](O)[C@@H]1O in terms of GI50 is 10.7

###

Tested on: UO-31
Test summary: Cytotoxicity against human UO31 cells by SRB assay
Assay type: functional
# label = True if GI50 < 10 µM else False

In: Determine if COC(C)(C)[C@@H](O)[C@H](O)C[C@H](C)C1=C2CC[C@@H]3[C@@]4(C)CC[C@@H](OC(C)=O)C(C)(C)[C@@H]4C[C@@H](O[C@@H]4O[C@H](COC(C)=O)[C@@H](O)[C@H](O)[C@H]4O)[C@@]3(C)[C@]2(C)CC1 shows GI50 strictly lower than 10 µM.
Out: False

In: # check: GI50 < 10 µM for CC(=O)OC[C@H]1O[C@@H](O[C@@H]2C[C@H]3C(C)(C)[C@H](OC(C)=O)CC[C@]3(C)[C@H]3CC[C@@]45C[C@H](O)C[C@H](C)[C@@H]4CC=C5[C@@]32C)[C@H](O)[C@@H](O)[C@@H]1O
Out: False

In: Input C=C(C)[C@@H](O)[C@H](O)C[C@H](C)[C@@H]1CC[C@]2(C)C1=CC[C@@H]1[C@@]3(C)CC[C@@H](OC(C)=O)C(C)(C)[C@@H]3C[C@@H](O[C@@H]3O[C@H](COC(C)=O)[C@@H](O)[C@H](O)[C@H]3O)[C@]12C ; condition: GI50 strictly below 10 µM. Does it hold?
Out: True

In: In plain terms, does CC(=O)OC[C@H]1O[C@@H](O[C@@H]2C[C@H]3C(C)(C)[C@H](OC(C)=O)CC[C@]3(C)[C@H]3CC[C@@H]4[C@]5(CC[C@@]4(C)[C@@]32C)O[C@@H]([C@H](O)C(C)(C)O)C[C@@H]5C)[C@H](O)[C@@H](O)[C@@H]1O come in under 10 µM for GI50?
Out: True

In: I wonder whether COC(C)(C)[C@@H](O)[C@H]1C[C@H](C)[C@@]2(CC[C@]3(C)[C@@H]2CC[C@@H]2[C@@]4(C)CC[C@@H](OC(C)=O)C(C)(C)[C@@H]4C[C@@H](O[C@@H]4O[C@H](COC(C)=O)[C@@H](O)[C@H](O)[C@H]4O)[C@]23C)O1 has GI50 below 10 µM. Can you tell?
Out: True

In: I wonder whether C=C1[C@@H](O)C[C@@]23CC[C@@H]4[C@@]5(C)CC[C@@H](OC(C)=O)C(C)(C)[C@@H]5C[C@@H](O[C@@H]5O[C@H](COC(C)=O)[C@@H](O)[C@H](O)[C@H]5O)[C@@]4(C)C2=CC[C@H]3[C@H]1C has GI50 below 10 µM. Can you tell?
Out: False

In: Does the reported GI50 of CC(=O)OC[C@H]1O[C@@H](O[C@@H]2C[C@H]3C(C)(C)[C@H](OC(C)=O)CC[C@]3(C)[C@H]3CCC4=C([C@@H](C)C[C@@H](O)[C@H](O)C(C)(C)O)CC[C@@]4(C)[C@@]32C)[C@H](O)[C@@H](O)[C@@H]1O stay below 10 µM?
Out: False
